test system: P. falciparum stage V gametocytes; parameters: BacTiter-Glo ATP luminescence viability of purified stage V gametocytes in 384-well plates, per cent inhibition versus DMSO; details: 48 h, 5 µM; inhibitor
About 3,200 (25%) of roughly 13,000 compounds showed an effect of 50% or more. The list shows a part of the results.
quantity: % Inhibition (%)
Form entry: value (%) — number only.

[[record]]
compound = "CCCOc1cc(Cc2cnc(N)nc2N)cc(OC)c1OC [TCMDC-137661]"
system_name = "P. falciparum stage V gametocytes"
quantitative_readout = 3.215

[[record]]
compound = "O=C1O[C@H](c2ccccc2)[C@H](c2ccccc2)N(C(=O)OCc2ccccc2)[C@H]1Cc1ccccc1C1CCCC1 [TCMDC-137303]"
system_name = "P. falciparum stage V gametocytes"
quantitative_readout = 5.453

[[record]]
compound = "O=C(Nc1cccc(-c2ccc(-c3nc4ccccc4[nH]3)cc2)c1)Nc1ccc2c(c1)OCO2 [TCMDC-133164]"
system_name = "P. falciparum stage V gametocytes"
quantitative_readout = -3.868

[[record]]
compound = "O=C(Cc1ccccc1)NC(Nc1ccc([N+](=O)[O-])cc1)C(Cl)(Cl)Cl (centres unmarked) [TCMDC-125789]"
system_name = "P. falciparum stage V gametocytes"
quantitative_readout = 52.36

[[record]]
compound = "COc1ccc(-c2cccc(NC(=O)c3ccc(Cl)cc3)c2)cc1CNC(C)C [TCMDC-132603]"
system_name = "P. falciparum stage V gametocytes"
quantitative_readout = 87.48

[[record]]
compound = "Cc1nc(SCC(=O)N2CCCC2=O)c2c(C)c(C)sc2n1 [TCMDC-123558]"
system_name = "P. falciparum stage V gametocytes"
quantitative_readout = 5.306


Notebook: O=C(NCc1ccc(F)cc1)c1ccc(N2CCN(c3ccncc3)CC2)cn1 [TCMDC-135157] , % Inhibition read as 0.3973

Form field % Inhibition, entry Cc1ccccc1CCNC(=O)c1cnc(N2CCN(c3ccncc3)CC2)c(Cl)c1 [TCMDC-134598] : 14.18

% Inhibition reported for this compound O=C(NCCc1ccccc1F)c1ccc(N2CCN(c3ccncc3)CC2)cn1 [TCMDC-135154] : -6.834

Recorded % Inhibition (compound Cc1ccc(C)c(-n2c(SCC(=O)Nc3ccc(C(N)=O)cc3)nnc2-c2cccc(Cl)c2)c1 [TCMDC-124332] ): 36.9

Note to self: % Inhibition recorded for COc1cccc(-c2[nH]c3ccccc3c2CN2CCC(c3c(C)cccc3C)CC2)c1 [TCMDC-141630] was 29.07

Given item FC(F)(F)c1ccc2nc(-c3cccc(-c4cccc(CN5CCN(c6ccncc6)CC5)c4)c3)[nH]c2c1 [TCMDC-132911] , the value recorded as its % Inhibition is -29.28

% Inhibition recorded for this compound, O=C(NC(NC(=S)Nc1ccc([N+](=O)[O-])cc1)C(Cl)(Cl)Cl)c1cccc(Cl)c1 (centres unmarked) [TCMDC-124130] , is -46.64

The value of % Inhibition measured for the compound COc1ccc(-c2ccc(NC(=O)c3cccc(F)c3)cc2)cc1CNC(C)C [TCMDC-132529] turned out to be -9.819

Form: compound = COc1cc(NC(=O)c2sc(-c3ccc(Cl)cc3)cc2NC(=O)CN2CCCC2)ccc1OCCN1CCCC1 [TCMDC-135381] ; % Inhibition = -9.57

Input COc1ccccc1CCNC(=O)c1cc(Br)cc(N2CCN(c3ccncc3)CC2)c1 [TCMDC-135148] . Output % Inhibition: -33.58

The measured % Inhibition associated with c1cc(CNCCc2ccncc2)cc(-c2cccc(-c3nc4ccccc4[nH]3)c2)c1 [TCMDC-132858] reads 84.49

Measured % Inhibition of CN(c1ccccc1C(=O)Nc1ccccc1Oc1ccccc1)S(=O)(=O)c1ccccc1 [TCMDC-125092] : -61.36

What the record says about COc1cccc(CN2CCC(CCOC(c3ccccc3)c3ccccc3)CC2)c1O [TCMDC-136041] : % Inhibition is -8.929

Entry Cc1[nH]cnc1Cc1ccc2c(c1O)c1ccccc1n2C [TCMDC-131955] , % Inhibition reported as -82.46

// Cc1cccc2nc(-c3cccc(-c4cccc(C(=O)NCc5nccn5C)c4)c3)[nH]c12 [TCMDC-132355] : % Inhibition value = -47.29

Lab note: measured % Inhibition of Oc1ccc(CCNc2nc(NCc3ccccc3Oc3ccc(C(F)(F)F)cc3)nc(N3CCNCC3)n2)cc1 [TCMDC-134133] was -9.208

Lab book: % Inhibition of COc1ccccc1CCNC(=O)c1cnc(N2CCN(c3ccncc3)CC2)c(Cl)c1 [TCMDC-134595] noted as 89.83
